FYI, the data here is from patent US10941136B2.

- assaySystem: PI3Kγ (p120γ)(h) (Homo sapiens, UniProt P48736)
- Sequence (P48736 whole entry): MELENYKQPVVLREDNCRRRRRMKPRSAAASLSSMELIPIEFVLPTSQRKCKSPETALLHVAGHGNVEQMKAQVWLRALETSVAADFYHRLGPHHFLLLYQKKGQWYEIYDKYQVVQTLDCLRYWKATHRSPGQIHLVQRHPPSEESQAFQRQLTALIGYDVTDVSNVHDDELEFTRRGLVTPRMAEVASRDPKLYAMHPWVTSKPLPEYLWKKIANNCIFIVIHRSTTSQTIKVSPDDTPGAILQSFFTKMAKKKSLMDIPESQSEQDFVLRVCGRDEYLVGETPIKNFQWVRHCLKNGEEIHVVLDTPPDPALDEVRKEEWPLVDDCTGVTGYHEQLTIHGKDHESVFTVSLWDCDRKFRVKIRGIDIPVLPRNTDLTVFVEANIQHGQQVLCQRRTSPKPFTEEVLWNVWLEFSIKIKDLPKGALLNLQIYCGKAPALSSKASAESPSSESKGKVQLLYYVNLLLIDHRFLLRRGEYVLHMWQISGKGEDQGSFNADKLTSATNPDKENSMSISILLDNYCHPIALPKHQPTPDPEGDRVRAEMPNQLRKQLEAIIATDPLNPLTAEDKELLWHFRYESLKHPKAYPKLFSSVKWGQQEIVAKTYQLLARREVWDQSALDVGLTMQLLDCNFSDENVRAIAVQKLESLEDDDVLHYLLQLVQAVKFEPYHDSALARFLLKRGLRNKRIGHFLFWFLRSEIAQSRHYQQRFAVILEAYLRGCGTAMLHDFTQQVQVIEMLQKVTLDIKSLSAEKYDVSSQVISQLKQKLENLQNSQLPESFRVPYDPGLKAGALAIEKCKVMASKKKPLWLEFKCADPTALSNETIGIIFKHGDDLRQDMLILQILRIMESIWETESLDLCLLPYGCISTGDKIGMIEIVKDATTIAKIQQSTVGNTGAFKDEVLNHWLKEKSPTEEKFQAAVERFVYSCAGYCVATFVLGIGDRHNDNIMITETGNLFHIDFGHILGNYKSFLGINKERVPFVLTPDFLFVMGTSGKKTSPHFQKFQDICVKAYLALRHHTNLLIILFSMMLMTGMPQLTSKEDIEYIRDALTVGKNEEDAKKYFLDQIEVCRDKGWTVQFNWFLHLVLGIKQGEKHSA
The reader will find reported pIC50 values listed item by item below.
Please treat pIC50 as minus the base-10 logarithm of the molar concentration.

Some entries whose results are on file:
| moleculeSmiles | assaySystem | pIC50 |
| --- | --- | --- |
| C[C@H](Nc1ncnc2ccc(C#N)cc12)c1cc2cccc(-c3cncnc3)c2c(=O)n1-c1ccccc1 | PI3Kγ (p120γ)(h) (Homo sapiens, UniProt P48736) | 6.38 |
| C[C@H](Nc1ncnc2ccc(C#N)cc12)c1cc2cccc(-c3cnc(N(C)C)nc3)c2c(=O)n1-c1ccccc1 | PI3Kγ (p120γ)(h) (Homo sapiens, UniProt P48736) | 7.03 |
| CCOc1ncc(-c2cccc3cc([C@H](C)Nc4ncnc5ccc(C#N)cc45)n(-c4ccccc4)c(=O)c23)cn1 | PI3Kγ (p120γ)(h) (Homo sapiens, UniProt P48736) | 6.49 |
| CC[C@H](Nc1ncnc2ccc(C#N)cc12)c1nc2cccc(-c3cncnc3)c2c(=O)n1C1CC1 | PI3Kγ (p120γ)(h) (Homo sapiens, UniProt P48736) | 6.09 |

Qu. Return the recorded pIC50 value; entry: Cc1ncc(-c2cccc3cc([C@H](C)Nc4ncnc5ccc(C#N)cc45)n(-c4ccccc4)c(=O)c23)cn1
Ans. 7.07
